- SUBJECT OF TEST: Antigen-presenting glycoprotein CD1d (Mus musculus) (UniProt P11609+P11610)
- EXPERIMENT NOTES: Binding affinity to CD1d in C57BL/6 mouse HMNC cells assessed as iNKT cells stimulation by measuring increase in IL-2 production at 25 nM incubated for 72 hrs by ELISA
- Type: cell-based
The source made the active and inactive calls. No cut-off for these calls is given here.
OBSERVED PROPERTY: Activity

* CCCCCCCCCCCCCCCCCCCCCCCCCC(=O)N[C@@H](CO[C@H]1O[C@H](CO)[C@H](O)[C@H](O)[C@H]1O)[C@H](O)[C@H](O)CCCCCCCCCCCCCC | Active
* CCCCCCCCCCCCCC[C@@H](O)[C@@H](O)[C@H](CO[C@H]1O[C@H](CO)[C@H](O)[C@H](O)[C@H]1O)NC(=O)CCCCCCCCCCCCCCCCCCC(=O)CF | Active
* CCCCCCCCCCCCCC[C@@H](O)[C@@H](O)[C@H](CO[C@H]1O[C@H](CO)[C@H](O)[C@H](O)[C@H]1O)NC(=O)CCCCCCCCCCCCCCCCCCCCC(=O)CF | Active

====

- SUBJECT OF TEST: Antigen-presenting glycoprotein CD1d (Mus musculus) (UniProt P11609+P11610)
- EXPERIMENT NOTES: Binding affinity to CD1d in C57BL/6 mouse HMNC cells assessed as iNKT cells stimulation by measuring increase in Th2-type cytokine, IL-4 production at 25 nM incubated for 72 hrs by ELISA
- Assay type: cell-based
The source made the active and inactive calls. No cut-off for these calls is given here.
Could you please pick one outcome from this set? yes (active), no (inactive)

Before answering, review these 3 worked examples.
• CCCCCCCCCCCCCCCCCCCCCCCCCC(=O)N[C@@H](CO[C@H]1O[C@H](CO)[C@H](O)[C@H](O)[C@H]1O)[C@H](O)[C@H](O)CCCCCCCCCCCCCC = yes
• CCCCCCCCCCCCCC[C@@H](O)[C@@H](O)[C@H](CO[C@H]1O[C@H](CO)[C@H](O)[C@H](O)[C@H]1O)NC(=O)CCCCCCCCCCCCCCCCCCCC(=O)CF = yes
• CCCCCCCCCCCCCC[C@@H](O)[C@@H](O)[C@H](CO[C@H]1O[C@H](CO)[C@H](O)[C@H](O)[C@H]1O)NC(=O)CCCCCCCCCCCCCCCCC(=O)CF = yes

Challenge: Check the results log: what was the call for CCCCCCCCCCCCCC[C@@H](O)[C@@H](O)[C@H](CO[C@H]1O[C@H](CO)[C@H](O)[C@H](O)[C@H]1O)NC(=O)CCCCCCCCCCCCCCCCCC(=O)CF ?
Response given: yes

Challenge: Check the results log: what was the call for CCCCCCCCCCCCCC[C@@H](O)[C@@H](O)[C@H](CO[C@H]1O[C@H](CO)[C@H](O)[C@H](O)[C@H]1O)NC(=O)CCCCCCCCCCCCCCCCCCCCC(=O)CF ?
Response given: yes

Challenge: Check the results log: what was the call for CCCCCCCCCCCCCC[C@@H](O)[C@@H](O)[C@H](CO[C@H]1O[C@H](CO)[C@H](O)[C@H](O)[C@H]1O)NC(=O)CCCCCCCCCCCCCCCCCCC(=O)CF ?
Response given: yes

Challenge: Check the results log: what was the call for CCCCCCCCCCCCCCCCCCCCCCCC(=O)N[C@@H](CO[C@H]1O[C@H](CO)[C@H](O)[C@H](O)[C@H]1O)[C@H](O)[C@H](O)CCCCC ?
Response given: no

====

- SUBJECT OF TEST: Antigen-presenting glycoprotein CD1d (Mus musculus) (UniProt P11609+P11610)
- EXPERIMENT NOTES: Binding affinity to CD1d in C57BL/6 mouse HMNC cells assessed as iNKT cells stimulation by measuring Th1-type cytokine, IFNgamma production at 25 nM incubated for 72 hrs by ELISA
- Assay type: cell-based
Activity calls are given as the source filed them. The calls are words filed in the database; no cut-off is given here.
OBSERVED PROPERTY: Activity

Please review the entries below; each comes with its answer.
* CCCCCCCCCCCCCC[C@@H](O)[C@@H](O)[C@H](CO[C@H]1O[C@H](CO)[C@H](O)[C@H](O)[C@H]1O)NC(=O)CCCCCCCCCCCCCCCCC(=O)CF | inactive
* CCCCCCCCCCCCCC[C@@H](O)[C@@H](O)[C@H](CO[C@H]1O[C@H](CO)[C@H](O)[C@H](O)[C@H]1O)NC(=O)CCCCCCCCCCCCCCCCCCCC(=O)CF | inactive
* CCCCCCCCCCCCCCCCCCCCCCCC(=O)N[C@@H](CO[C@H]1O[C@H](CO)[C@H](O)[C@H](O)[C@H]1O)[C@H](O)[C@H](O)CCCCC | inactive
* CCCCCCCCCCCCCC[C@@H](O)[C@@H](O)[C@H](CO[C@H]1O[C@H](CO)[C@H](O)[C@H](O)[C@H]1O)NC(=O)CCCCCCCCCCCCCCCCCCCCC(=O)CF | inactive
* CCCCCCCCCCCCCC[C@@H](O)[C@@H](O)[C@H](CO[C@H]1O[C@H](CO)[C@H](O)[C@H](O)[C@H]1O)NC(=O)CCCCCCCCCCCCCCCCCCC(=O)CF | inactive

Now take the following compound into account.
Challenge: Recorded Activity of CCCCCCCCCCCCCC[C@@H](O)[C@@H](O)[C@H](CO[C@H]1O[C@H](CO)[C@H](O)[C@H](O)[C@H]1O)NC(=O)CCCCCCCCCCCCCCCCCC(=O)CF , please.
Response given: inactive
